Tested on: Micrococcus luteus
Assay: Antibacterial activity against Micrococcus luteus after 24 hr by disk diffusion method; further: test concentration or dose not given here
Assay type: functional
Parameter diameter of the inhibition zone (DIZ): see the listing below.
I only need the number, in mm, no unit after it.

Query diameter of the inhibition zone (DIZ) for COc1ccc(C2C(Cl)C(=O)N2NC(=O)NCC(=O)N2c3ccccc3Sc3ccccc32)cc1 (stereo not given) 7

Query diameter of the inhibition zone (DIZ) for O=C(NCC(=O)N1c2ccccc2Sc2ccccc21)NN1C(=O)C(Cl)C1c1ccc(O)cc1 (stereo not given) 12

Query diameter of the inhibition zone (DIZ) for O=C(NCC(=O)N1c2ccccc2Sc2ccccc21)NN1C(=O)C(Cl)C1c1ccc([N+](=O)[O-])cc1 (stereo not given) 3
